# Tested on: Plasmodium falciparum
# ASSAY DETAILS: GSK_TCMDC: Inhibition of Plasmodium falciparum 3D7 in whole erythrocytes, using parasite LDH activity as an index of growth.
# Type: functional, organism-based
# PROTOCOL CONDITIONS: Plasmodium falciparum, 3D7
PARAMETER MEASURED: XC50 (nM)

COMPOUND	READOUT NUMBER
NC1CCN(CCc2ccc(NS(=O)(=O)c3cccc4ccccc34)cc2)CC1	1700
Nc1c2c(nc3ccc(NC(=O)c4ccccc4)cc13)CCCC2	611
CCN(CC)S(=O)(=O)c1ccc(C(=O)Oc2ccccc2N(Cc2ccc(OC)cc2)C2=NS(=O)(=O)c3ccccc32)cc1	585
O=C(Nc1ccc(F)c([N+](=O)[O-])c1)Nc1cc(C(F)(F)F)ccc1Cl	861
C[C@H](Nc1c(Nc2ccc3[nH]ccc3c2)c(=O)c1=O)C1CCCCC1	213
CN1CCN(CCCN(Cc2cccc(-c3ccc(CNCc4ccc5c(c4)OCO5)cc3)c2)C(=O)Nc2ccccc2)CC1	681
CC(C)C(=O)ONC1=NC(=N)N(OCCCOc2cc(Cl)c(Cl)cc2Cl)C(C)(C)N1	3.2
COc1ccc(CNCc2cccc(-c3cccc(-c4nc5cc(F)ccc5[nH]4)c3)c2)cc1	300
Cc1ccccc1C1CCN(C2CCC(NC(=O)/C=C/c3ccc(OC(F)(F)F)cc3)CC2)CC1 (stereo not given)	857
CN(C)CCOc1ccc2c(=O)cc(CCc3cccc(F)c3F)n(CC(=O)N(C)Cc3ccc(-c4ccc(C(F)(F)F)cc4)cc3)c2c1	1200
O=S(=O)(Nc1ccc(CCN2CCC(N3CCCCC3)CC2)cc1)c1ccc(Cl)cc1	1090
O=C(NC1CCN(Cc2ccccc2)CC1)c1ccc2c(=O)n(Cc3ccc(Cl)cc3)c(=S)[nH]c2c1	998
N#Cc1ccc2c(c1)CN(CCC1CCC(NC(=O)c3cc4ccccc4cc3N)CC1)CC2 (stereo not given)	1040
CCOc1cc(C(=O)NCCCN2CCN(c3cccc(Cl)c3)CC2)ccc1-c1nc2cc(Cl)c(F)cc2[nH]1	866
CCC/C=C/c1c(CNCCCNc2cc(=O)c3ccccc3[nH]2)sc(CC)c1Br	889

----------
# Tested on: Plasmodium falciparum
# ASSAY DETAILS: GSK_TCMDC: Inhibition of Plasmodium falciparum 3D7 in whole erythrocytes, using parasite LDH activity as an index of growth.
# Type: functional, organism-based
# PROTOCOL CONDITIONS: Plasmodium falciparum, 3D7
Listing: XC50 of selected molecules

MOLECULE	MEASURED TARGET	XC50 / nM
O=C(NC1CCCCC1)N(Cc1ccc(-c2ccc(CNCc3ccc4c(c3)OCO4)cc2)cc1)C1CCN(Cc2ccccc2)CC1	Plasmodium falciparum	690
COc1ccc(N2C(=O)C3C(C2=O)C2(C)c4ccccc4C3(C)c3ccccc32)c([N+](=O)[O-])c1 (stereo not drawn)	Plasmodium falciparum	720
CCCc1cc(OC)c(CC2c3cc(O)c(C)cc3CCN2C)cc1OC (stereo not drawn)	Plasmodium falciparum	701

----------
# Tested on: Plasmodium falciparum
# ASSAY DETAILS: GSK_TCMDC: Inhibition of Plasmodium falciparum 3D7 in whole erythrocytes, using parasite LDH activity as an index of growth.
# Format: functional, organism-based
# PROTOCOL CONDITIONS: Plasmodium falciparum, 3D7
Recorded measurements of XC50, one per entry

MOLECULE	XC50 [µM]
COc1cccc2cc(C(=O)N[C@@H](CC(C)C)C(=O)N[C@H](/C=N/N3C(=O)CN(Cc4ccccc4)C3=O)CCc3ccccc3)oc12	0.618
N=C(N)c1ccc(C(=O)Nc2cccc(C(=N)N)c2)cc1	1.04
Oc1c(CNC2CCCCC2)cc(Cl)c2ccccc12	0.838
O=c1nc(NCCCCCN2CCC(c3c[nH]c4ccccc34)CC2)[nH]cc1Cc1ccc(Cl)c(Cl)c1	0.969
O=C(C=Cc1ccc(Cl)c(Cl)c1)NCCCCCN1CCC(CCCNS(=O)(=O)c2cccc(C(F)(F)F)c2)CC1	0.477
C[C@@H](COc1ccccc1)NCC(O)c1ccc([N+](=O)[O-])c(OCc2ccccc2)c1 (some centres not stated)	0.994
CS(=O)(=O)Nc1cccc(-c2cnc3[nH]cc(-c4ccc(C(=O)O)c(F)c4)c3c2)c1	0.834

----------
Below, each entry is listed alongside its reported XC50.
# Test system: Plasmodium falciparum
# ASSAY DETAILS: GSK_TCMDC: Inhibition of Plasmodium falciparum 3D7 in whole erythrocytes, using parasite LDH activity as an index of growth.
# Assay type: functional, organism-based
# PROTOCOL CONDITIONS: Plasmodium falciparum, 3D7

COMPOUND	UNIT SYMBOL	XC50
O=C(N[C@H]1CCN(Cc2ccc(OCCN3CCNCC3)c3ccccc23)C1)c1ccc(Cl)c(Cl)c1	nM	748
CCOc1cc(C(=O)Nc2ccc(-c3nc4ccccc4[nH]3)cc2)cc(OCC)c1OCC	nM	234
CC(O)CNc1nc2ccccc2n1CC(=O)Nc1cccc(C(=O)Nc2cccc(C(F)(F)F)c2)c1 (stereo not drawn)	nM	103
CC(C)(C)C/C=C\c1ccc(C(=O)NCC2CC2)cc1	nM	850
COc1cccc(OC)c1CN1CCC(N(C)CCCCCCCCCN2CCC(OC(=O)Nc3ccccc3-c3ccccc3)CC2)CC1	nM	319
CCOc1ccccc1CNc1nccc(NCc2ccc(Cl)cc2Cl)n1	nM	1100
CC(C)(CC1CCCCC1)NC(=O)[C@H](CC1CCCCC1)Nc1ccc(C#N)c2ccccc12	nM	592
CCCCSc1c(CNCCCCCCNCc2ccc3ccccc3c2SCCCC)ccc2ccccc12	nM	999
CCOC(=O)Cc1nc(C(=O)OCC)c(N)[nH]1	nM	647
CN1CCc2cc(CN3CC4(C)CC3CC(C)(C)C4)c(O)cc2C(c2ccccc2)C1 (stereo not drawn)	nM	720
CCN(CC)CCN(Cc1ccc(-c2ccc(C(F)(F)F)cc2)cc1)C(=O)Cn1c(CCc2cccc(F)c2F)nc(=O)c2ccc(C(F)(F)F)cc21	nM	783
Cc1cc(Cl)c(Cl)cc1NC(=O)Nc1cccc(C(F)(F)F)c1	nM	873
COc1cccc(Nc2nc(C)cc(NC3CCN(Cc4ccccc4)CC3)n2)c1	nM	693
CC(=O)Oc1c(Cl)c(C)nc(C)c1-c1ccc(Oc2ccc(Cl)cc2)cc1	nM	31.5
CC(C)N1CCC(N(Cc2ccc(-c3ccc(C(F)(F)F)cc3)cc2)C(=O)Cn2c(CCc3cccc(F)c3F)cc(=O)c3cn(C)nc32)CC1	nM	1170
CN(C)C(CNC(=O)c1cc(-c2ccncc2)c(-c2cc3ccccc3[nH]2)o1)c1ccccc1 (stereo not drawn)	nM	841
Cc1c(C)c2c(c(C)c1O)CC[C@@](C)(C(=O)N1CCC(CCN3CCC(c4c[nH]c5ccccc45)CC3)CC1)O2	nM	666
Cc1cc(N(C)C)nc(Nc2ccc(NS(=O)(=O)c3ccccc3)cc2)n1	nM	1350
FC(F)(F)c1ccc2[nH]c(-c3ccc(-c4cccc(CN5CCN(c6ccncc6)CC5)c4)cc3)nc2c1	nM	118
Cc1ccc2c(O)c([N+](=O)[O-])c(O)nc2c1	nM	422
Nc1nc(N)c2c(Cl)c(CNc3cccc(C(=O)O)c3)ccc2n1	nM	8.88
O=C(NC1CCN(Cc2ccc3c(c2)OCCO3)CC1)c1ccc(-c2cccc(Cl)c2)s1	nM	1910
CCNC(=O)NC1CCN(Cc2c(-c3cccs3)nc3ccccc3c2C(=O)N[C@@H](C)C2CCCCC2)CC1	nM	91.3
COc1cccc(C2CCCN(CCCCNC(=O)c3ccc(NC(=O)c4ccc(Cl)cc4)cc3)C2)c1 (stereo not drawn)	nM	864
Cc1ccoc1C(=O)Nc1cccc(-c2cccc(-c3nc4cccc(C)c4[nH]3)c2)c1	nM	675
CCCCNCc1ccc(OCc2cccc(COc3ccc(CNCCCC)cc3I)c2)c(I)c1	nM	1120
CCCC(C)NC(=O)/C=C/c1ccccc1-c1cccc(OC)c1 (stereo not drawn)	nM	1250
CC(=O)Oc1c(C2CCN(CCCCNC(=O)c3ccc(NC(=O)c4ccc(Cl)cc4)cc3)CC2)ccc2c1CCCC2	nM	764
Cc1cc(=O)c(-c2ccc(Oc3cccc(OC(F)(F)F)c3)cc2)c(C)[nH]1	nM	202
Cc1cccc2nc(-c3ccc(-c4ccc(NC(=O)c5cncn5C)cc4)s3)[nH]c12	nM	670
O=C(Nc1cccc(C(F)(F)F)c1)c1cccc2nc(C(F)(F)F)[nH]c12	nM	644
CN1CCN(CC(=O)Nc2cccc(-c3ccc(-c4nc5cc(F)ccc5[nH]4)cc3)c2)CC1	nM	703
Cc1ccc(O)cc1Nc1ccnc2cc(-c3ccccn3)ccc12 [GW440139A]	nM	761

----------
# Tested on: Plasmodium falciparum
# ASSAY DETAILS: GSK_TCMDC: Inhibition of Plasmodium falciparum 3D7 in whole erythrocytes, using parasite LDH activity as an index of growth.
# Format: functional, organism-based
# PROTOCOL CONDITIONS: Plasmodium falciparum, 3D7
Note: every record was labeled by where its XC50 sits among lo (below 600 nM), med (600 nM to below 900 nM), hi (900 nM or more)

MOLECULE	CAT
Cc1cc(NC2CCCC2)nc(Nc2ccccc2)n1	hi
CCc1cc(COc2ccc(CNCCC(C)C)cc2I)c(OCc2ccccc2)c(COc2ccc(CNCCC(C)C)cc2I)c1	hi
COC(=O)c1cccc(N2CCN(CCCNC(=O)/C(=C/C=C/c3cc4cc(Cl)c(Cl)cc4[nH]3)OC)CC2)c1	med
Cc1c(CNCCCNc2cc(=O)c3ccccc3[nH]2)sc(-c2ccco2)c1Br	hi
Cc1c(C)c2c(c(C)c1O)CC[C@](C)(C(=O)N1CCC(CCN3CCC(c4c[nH]c5ccccc45)CC3)CC1)O2	med
COc1ccc2nccc([C@@H](O)CN3CCC(NS(=O)(=O)c4cc5c(cc4Cl)SCC(=O)N5)CC3)c2c1	hi
CCN1CCN(c2cc(C)c3cc(NC(=O)c4ccc(OC)c(OC)c4)ccc3n2)CC1	hi
COCCOc1ccc(C(F)(F)F)cc1NC(=O)Cc1c(F)cccc1Cl	hi
Cn1nccc1C(=O)NCCNCc1ccc(-c2ccc(-c3nc4cc(C(F)(F)F)ccc4[nH]3)cc2)cc1	lo
CCC(Cc1cnc2nc(N)nc(N)c2n1)c1ccc(C(=O)O)cc1 (stereo unspecified)	lo
Cc1cccc2nc(-c3ccc(-c4ccc(NC(=O)Nc5ccc(Cl)c(Cl)c5)cc4)cc3)[nH]c12	med
O=C(NC1CCN(c2ccnc3cc(Cl)ccc23)C1)c1ccccc1F (stereo unspecified)	hi
COc1cc2nc(NCCc3cccc(Cl)c3)nc(NCc3ccccc3)c2cc1OC	lo
COc1cccc(Cn2ccc3c4c(N)nc(N)nc4ccc32)c1	lo
Oc1ccc(-c2ccccc2)cc1CNC1CCCCC1	lo
O=C(N[C@H]1CCN(Cc2ccc(OCCCN3CCCCC3)cc2)C1)c1ccc2ccccc2c1	med
CNC(=O)C(NC(=O)c1ccccc1C(=O)OC)c1ccccc1 (stereo unspecified)	lo
O=C(NCc1ccc(C(=O)NCc2cccc3ccccc23)cc1)c1ccc(O)c(-c2ccc(Cl)c(Cl)c2)c1	med
COc1ccc2nccc([C@@H](O)CN3CCC(NCc4cc5cc(Cl)ccc5[nH]4)CC3)c2c1	lo
O=C(Nc1cccc(-c2cccc(-c3nc4ccccc4[nH]3)c2)c1)Nc1ccc2c(c1)OCO2	lo
CC(C)(C)Oc1ccc(CC2NC3(C(=O)N(Cc4ccc(C(C)(C)C)cc4)c4ccccc43)C3C(=O)N(c4ccc(Br)cc4)C(=O)C23)cc1 (stereo unspecified)	med
O=C(C=Cc1ccc(Cl)c(Cl)c1)NCCCCCN1CCC(CCNC(=O)c2ccc3c(c2)OCO3)CC1	med
O=S(=O)(NCCN1CCCC1)c1cccc(-c2cccc(CNCCc3cccs3)c2)c1	med
CC(=O)N1N=C(c2ccc(Cl)cc2)Sc2c1nc(-c1ccccc1)n2C(C)=O	lo
c1ccc(C2=NN=C(c3ccccn3)C3C4CC(C23)C2C3CC(c5ccccc53)C42)nc1 (stereo unspecified)	med
